Molecular target: T1, recombinant human CD127 extracellular domain (CD127 ECD) (human, UniProt P16871 21-219)
T1 construct: The assays only say 'recombinant human CD127 ECD'; also called IL-7Rα EDC; IL-7Rα
T1 chain: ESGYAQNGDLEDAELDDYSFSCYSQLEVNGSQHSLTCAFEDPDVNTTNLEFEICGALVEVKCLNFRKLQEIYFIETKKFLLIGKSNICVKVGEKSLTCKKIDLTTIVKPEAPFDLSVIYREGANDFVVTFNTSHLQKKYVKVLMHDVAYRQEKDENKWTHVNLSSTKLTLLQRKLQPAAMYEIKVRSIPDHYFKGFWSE
Experiment: SPR, Biacore T100, 25° C.; antibody captured on rabbit anti-mouse IgG, CD127 ECD as analyte
Measured property: koff (s⁻¹)
Return type: number; implicit unit s⁻¹.

Ask | Fill in the blank: the reported koff of mAb 6A3 (murine anti-human CD127 monoclonal antibody) (antibody, mouse IgG1, V domains shown, also called antibody 6A3) VH: DVQLQESGPGLVKPSQSLSLTCTVTGYSITTDYAWNWIRQFPGNKLEWMGYIFYSGSTTYTPSLKSRISITRDTSKNQFFLQLNSVTTEDTATYYCARGGYDVNYFDYWGQGTTLTVSS VL: DIQMTQSPASQSASLGESVTITCLASQTIGAWLAWYQQKPGKSPQLLIYAATRLADGVPSRFSGSGSGTKFSFKISSLQAEDFVSYYCQQFFSTPWTFGGGTKLEIK is ____.
Reply | 0.000146

Ask | Fill in the blank: the reported koff of mAb 1A11 (murine anti-human CD127 monoclonal antibody) (antibody, mouse IgG1, V domains shown, also called antibody 1A11) VH: EVQLQQSGPELLKPGASMKISCKASGYSFTGYTMNWVKQSHGKNLEWIGLINPYNGVTSYNQKFKGKATLTVAKSSSTAYMELLSLTSEDSAVYYCARGDGNYWYFDVWGAGTTVTVSS VL: EIVLTQSPAITAASLGQKVTITCSASSSVTYMHWYQQKSGTSPKPWIYEISKLASGVPVRFSGSGSGTSYSLTISSMEAEDAAIYYCQEWNYPYTFGGGTKLEIK is ____.
Reply | 0.000251

Ask | Fill in the blank: the reported koff of mAb GR34 (reverse engineered clone of R34.34) (antibody, mouse IgG1, V domains shown, also called antibody GR34) VH: EVQLQQSGPELVKPGASMKISCKASGYSFTGYTMNWVKQSHGKNLEWIGLINPYSGITSYNQNFKGKATLTVDKSSSTAYMELLNLTSEDSAVYYCARGDGNYWYFDVWGAGTTVTVSS VL: EIILTQSPAITAASLGQKVTITCSASSSVSYMHWYQQKSGTSPKPWIYEISKLASGVPARFSGSGSGTSYSLTISSMEAEDAAIYYCQYWNYPYTFGGGTKLEIK is ____.
Reply | 0.000875

Ask | Fill in the blank: the reported koff of mAb 6C5 (murine anti-human CD127 monoclonal antibody) (antibody, mouse IgG1, V domains shown, also called antibody 6C5) VH: EVKLLESGGGLVQPGGSLKLSCAASGFAFSAYWMSWVRQAPGKGLEWIGEINPDSSTINCTPSLKDKFIISRDNAKNTLSLQMNKVRSEDTALYYCARRLRPFWYFDVWGAGTTVTVSS VL: DVLMTQTPLSLPVSLGDQASISCRSSQSIVQSNGNTYLEWYLQKPGQSPKLLIYKVSNRFSGVPDRFSGSGSGTDFTLKISRVEAEDLGVYYCFQGSHVPRTFGGGTKLEIK is ____.
Reply | 0.000436
